# Tested on: Wolbachia pipientis
# ASSAY DETAILS: Anti-Wolbachia Cell-Based Screen
# Type: functional
# Set-up: scale not given: in the data most compounds retested in dose-response had high values
# CONDITION DESCRIPTION: 5 µM
Out of some 48,000 compounds screened, about 13,000 (27%) showed an effect of 50% or more. Some of the results follow.
Catalogue of compounds with associated Percent Effect
I only need the number, in %, no unit after it.

The examples below pair each entry with its known result.
>  <COMPOUND>
CCCN1CCC(CC(=O)N2CCC(C(O)c3nccn3C)CC2)CC1 (configuration not stated)

>  <MEASURED METRIC>
Percent Effect

>  <UNIT TEXT>
%

>  <EXPERIMENTAL RESULT>
109.9

$$$$
>  <COMPOUND>
N#Cc1ccccc1CN1CCCC(c2nccn2CC2CCC2)C1 (configuration not stated)

>  <MEASURED METRIC>
Percent Effect

>  <UNIT TEXT>
%

>  <EXPERIMENTAL RESULT>
17.05

$$$$
>  <COMPOUND>
Cc1nc(N2CCC(C(O)c3nccn3C)CC2)c2cccnc2n1 (configuration not stated)

>  <MEASURED METRIC>
Percent Effect

>  <UNIT TEXT>
%

>  <EXPERIMENTAL RESULT>
-5.3

$$$$
>  <COMPOUND>
CN(CC(=O)NC(C)(C)C)C(=O)c1cccn1CCc1ccccc1

>  <MEASURED METRIC>
Percent Effect

>  <UNIT TEXT>
%

>  <EXPERIMENTAL RESULT>
4.312

$$$$
>  <COMPOUND>
O=C(Nc1ccc(N2CCCC2)nc1)N1CCc2ccccc2C1

>  <MEASURED METRIC>
Percent Effect

>  <UNIT TEXT>
%

>  <EXPERIMENTAL RESULT>
28.26

$$$$
>  <COMPOUND>
COC(=O)c1cccc(C(=O)N2CCN(c3cc(C)ccc3C)CC2)n1

>  <MEASURED METRIC>
Percent Effect

>  <UNIT TEXT>
%

>  <EXPERIMENTAL RESULT>
123.5

$$$$
>  <COMPOUND>
CNC(=O)CC1CCN(C(=O)Nc2ccc(-c3cc[nH]n3)cc2)CC1

>  <MEASURED METRIC>
Percent Effect

>  <UNIT TEXT>
%

>  <EXPERIMENTAL RESULT>
6.092

$$$$
>  <COMPOUND>
COc1ccccc1C(O)Cn1cc(C(=O)NCc2ccco2)nn1 (configuration not stated)

>  <MEASURED METRIC>
Percent Effect

>  <UNIT TEXT>
%

>  <EXPERIMENTAL RESULT>
-0.6679

$$$$
>  <COMPOUND>
N#CCCN(C(=O)CN1CCCC1c1ccsc1)c1ccccc1F (configuration not stated)

>  <MEASURED METRIC>
Percent Effect

>  <UNIT TEXT>
%

>  <EXPERIMENTAL RESULT>
-4.506

$$$$
>  <COMPOUND>
CSc1nsc(NC(=O)N2CCc3ccccc3C2)n1

>  <MEASURED METRIC>
Percent Effect

>  <UNIT TEXT>
%

>  <EXPERIMENTAL RESULT>
111

$$$$

Recorded Percent Effect (compound CC(C)c1nc(C2CCCN2C(=O)c2ccc(N(C)C)nn2)no1 (configuration not stated) ): 2.138

Recorded Percent Effect (compound CC(=O)N1CCCC2(CN(Cc3ccccc3C(F)(F)F)CCO2)C1 (configuration not stated) ): -3.341

Recorded Percent Effect (compound CN(CC(=O)N1CCCC1c1noc(C2CC2)n1)C1CC1 (configuration not stated) ): -4.612

Recorded Percent Effect (compound COC(=O)[C@H]1C[C@@H](O)CCN1S(=O)(=O)c1cc(Cl)ccc1OC ): -10.78

Recorded Percent Effect (compound CCCN1CCC(CC(=O)N2CC(C)(C)[C@@](C)(O)C2)CC1 ): 2.3

Recorded Percent Effect (compound CCn1ncnc1C(NC(=O)CC1CCN(C(C)C)CC1)C1CC1 (configuration not stated) ): -0.6358

Recorded Percent Effect (compound CCCOCC(=O)Nc1ncc(I)cc1C ): -6.497

Recorded Percent Effect (compound Cc1nccn1CCCN1CCC(c2nccn2CC2CCC2)CC1 ): 81.99

* * *

Catalogue of compounds with associated Percent Effect
# Test system: Wolbachia pipientis
# ASSAY DETAILS: Anti-Wolbachia Cell-Based Screen
# Assay type: functional
# Design: scale not given: in the data most compounds retested in dose-response had high values
# CONDITION DESCRIPTION: 5 µM
The whole screen tested about 48,000 compounds, of which about 13,000 (27%) showed an effect of 50% or more. The list shows a part of the results.
I only need the number, in %, no unit after it.

The examples below pair each entry with its known result.
>  <COMPOUND>
CC(C)Nc1nc2c(s1)C(=O)CN(CC1CC1)C2

>  <STUDY SYSTEM>
Wolbachia pipientis

>  <Percent Effect [%]>
101.7

$$$$
>  <COMPOUND>
COc1ccc(CN2CCC(O)(CN3CCCCC3)C2)c(C)c1 (centres undefined)

>  <STUDY SYSTEM>
Wolbachia pipientis

>  <Percent Effect [%]>
1.46

$$$$
>  <COMPOUND>
N#Cc1cccc(CN2CCC3(CC(C(=O)NCC4CC4)=NO3)C2)c1 (centres undefined)

>  <STUDY SYSTEM>
Wolbachia pipientis

>  <Percent Effect [%]>
-1.937

$$$$

Recorded Percent Effect (compound Cn1ncc2c(N3CCN4CCCCC4C3)nc(C3CCCC3)nc21 (centres undefined) ): 111.9

Recorded Percent Effect (compound Cn1ncc2c(N3CCC(CCO)CC3)nc(C(C)(C)C)nc21 ): -3.712

Recorded Percent Effect (compound CS(=O)(=O)CCOCCNc1cncc(Br)c1 ): -7.579

Recorded Percent Effect (compound Cc1ccccc1CN1CCCN(CCN2CCOC2=O)CC1 ): 6.019

Recorded Percent Effect (compound CC(C)CNC(=O)C1=NOC2(CCN(Cc3cccc(C#N)c3)C2)C1 (centres undefined) ): 102.8

Recorded Percent Effect (compound CC(C)Nc1nc2c(s1)C(=O)CN(C)C2 ): 130.6

* * *

# Tested on: Wolbachia pipientis
# ASSAY DETAILS: Anti-Wolbachia Cell-Based Screen
# Assay type: functional
# Parameters: scale not given: in the data most compounds retested in dose-response had high values
# CONDITION DESCRIPTION: 5 µM
Out of some 48,000 compounds screened, about 13,000 (27%) showed an effect of 50% or more. The list shows a part of the results.
Catalogue of compounds with associated Percent Effect
Answers without a unit are incomplete; give the number and then its unit.

The examples below pair each entry with its known result.
>  <COMPOUND>
O=C(O)C(F)(F)F.O=S(=O)(C1CC1)N1C[C@@H]2CN(Cc3ccoc3)CCO[C@@H]2C1

>  <EXPERIMENTAL RESULT>
10.49%

$$$$
>  <COMPOUND>
O=C(NCCCN1CCCC1)c1n[nH]c(=O)c2ccccc12

>  <EXPERIMENTAL RESULT>
0.5839%

$$$$
>  <COMPOUND>
Cc1ccc(CN2CCOC(C)(c3cnn(C)c3)C2)cc1 (stereo not given)

>  <EXPERIMENTAL RESULT>
-10.42%

$$$$
>  <COMPOUND>
Fc1cnc(N2CC[C@@H](N3CCOCC3)[C@@H]2Cc2ccncc2)nc1.O=C(O)C(F)(F)F.O=C(O)C(F)(F)F

>  <EXPERIMENTAL RESULT>
-1.872%

$$$$
>  <COMPOUND>
Cc1nnc(N2C[C@@H](OCC3CCCC3)[C@H]3OCCC[C@H]32)s1.O=C(O)C(F)(F)F

>  <EXPERIMENTAL RESULT>
-7.489%

$$$$
>  <COMPOUND>
CC(C)Cc1noc(CN2CCC(NC(=O)c3cccs3)CC2)n1

>  <EXPERIMENTAL RESULT>
5.621%

$$$$
>  <COMPOUND>
COc1ccc(C(=O)N2C[C@@H](NC(=O)N(C)C)[C@H](C(C)C)C2)c(OC)n1

>  <EXPERIMENTAL RESULT>
83.06%

$$$$
>  <COMPOUND>
CNC(=O)C1CCCCN1C(=O)c1n[nH]c(=O)c2ccccc12 (stereo not given)

>  <EXPERIMENTAL RESULT>
98.92%

$$$$

Recorded Percent Effect (compound Cn1cnc(-c2ccc(F)cc2)c1NC(=O)CCNC(=O)C(C)(C)C ): -6.706%

Recorded Percent Effect (compound Fc1cnc(N2C[C@@H](OCC3CCOCC3)[C@H]3OCCC[C@H]32)nc1.O=C(O)C(F)(F)F ): 83.11%

* * *

Catalogue of compounds with associated Percent Effect
# System: Wolbachia pipientis
# ASSAY DETAILS: Anti-Wolbachia Cell-Based Screen
# Assay type: functional
# Design: scale not given: in the data most compounds retested in dose-response had high values
# CONDITION DESCRIPTION: 5 µM
Among all 48,000 compounds or so, about 13,000 (27%) showed an effect of 50% or more. Some of the results follow.
I only need the number, in %, no unit after it.

The examples below pair each entry with its known result.
>  <COMPOUND>
NC(=O)CCC1CCCN(c2ccnc3cc(F)ccc23)C1 (stereo not drawn)

>  <STUDY SYSTEM>
Wolbachia pipientis

>  <Percent Effect / %>
94.8

$$$$
>  <COMPOUND>
CCc1c(C)nn2c(O)cc(C3CCN(C(=O)C4CC4)C3)nc12 (stereo not drawn)

>  <STUDY SYSTEM>
Wolbachia pipientis

>  <Percent Effect / %>
96.58

$$$$

Recorded Percent Effect (compound CCNC(=O)C1CCCN(c2cccc(C(F)(F)F)n2)C1 (stereo not drawn) ): 5.494

Recorded Percent Effect (compound O=C(NCCC1=CCCCC1)C1CCCN(c2ccc3nncn3n2)C1 (stereo not drawn) ): 4.301

Recorded Percent Effect (compound NC(=O)c1ccc(N2CCN(Cc3ccc(F)cc3Cl)CC2)nn1 ): 4.526

Recorded Percent Effect (compound CSC(C)C(=O)N1CCN(CCO)CC1 (stereo not drawn) ): -9.9

Recorded Percent Effect (compound CCCNC(=O)C1CCCN(c2ccc3nncn3n2)C1 (stereo not drawn) ): 106.8

Recorded Percent Effect (compound CC(NC(=O)CCCn1cnc2ccccc2c1=O)c1ncn[nH]1 (stereo not drawn) ): 135.6

All figures here come from ChEMBL document CHEMBL3988442.
